# System: Human monocytic lymphoma (U937) cells
# Assay type: cell-based

SUBSTANCE	UNITS OF MEASURE	Cells permeabilized (PI-positive)
HXL013: Class I plant defensin from Glycine max, SEQ ID NO:11 (KDCLTRRHGFQGRCLFDRQCAHVCRSDGFIGGQCRGPLRKCFCSRPC; HXL013 Glycine max)	%	5
HXL004: Class I plant defensin from Nicotiana benthamiana, SEQ ID NO:7 (Table 1) (RTCESQSHRFKGLCFSRSNCASVCHTEGFNGGHCRGFRRRCFCTRHC; HXL004 Nicotiana benthamiana)	%	13
NaD1: Solanaceous Class II plant defensin from Nicotiana alata, SEQ ID NO:18 (RECKTESNTFPGICITKPPCRKACISEKFTDGHCSKILRRCLCTKPC; NaD1 Nicotiana alata)	%	33
HXP4: Artificial defensin variant, Loop1B from a Class I defensin replaces that of a Solanaceous Class II defensin, SEQ ID NO:21 (RECKTESHRFKGPCITKPPCRKACISEKFTDGHCSKILRRCLCTKPC; HXP4)	%	13

###

# System: Human monocytic lymphoma (U937) cells
# Type: cell-based

SUBSTANCE	Cells permeabilized (PI-positive)
HXL001: Class I plant defensin from Zea mays, SEQ ID NO:4 (RHCLSQSHRFKGLCMSSNNCANVCQTENFPGGECKAEGATRKCFCKKIC; HXL001 Zea mays)	less than 2%
HXL012: Class I plant defensin from Amaranthus retroflexus, SEQ ID NO:10 (RMCKAPSKLFRGMCGIRDSNCDSVCRAEGMAAGDCHGLRRRCICSRPC; HXL012 Amaranthus retroflexus)	less than 2%
HXL002: Class I plant defensin from Triticum aestivum, SEQ ID NO:5 (RDCLSQSHKFKGACLSSSNCAAVCRTENFPDGECHTHNFARKCFCKRAC; HXL002 Triticum aestivum)	less than 2%
HXL005: Class I plant defensin from Taraxcum kok-saghyz, SEQ ID NO:8 (Table 1) (KMCQTTSHAFSCVNDSGCSGSCEKQGFASGKCDGVRRRCTCYKKC; HXL005 Taraxcum kok-saghyz)	~25%
HXL008: Class I plant defensin from Picramnia pentandra, SEQ ID NO:1 (KVCTKPSKFFKGLCGTDGACTTACRKEGLHSGYCQLKGFLNSVCVCRKHC; HXL008 Picramnia pentandra)	less than 2%
HXL009: Class I plant defensin from Zea mays, SEQ ID NO:9 (Table 1) (TVCMRHNNFYHGPCMSNKDCANSCVQHNLGVGGYCRGKIPFNKECMCTFEC; HXL009 Zea mays)	less than 2%
